Ref: patent US11179412B2

test system: STING activation (IFNβ release) in iBMDMs; test: IFNβ release ELISA after STING ligand (or LPS) stimulation, iBMDMs; type: cell-based, mouse; conditions: iBMDMs; 3′3′-cGAMP 10 μg/ml, 16 hours; compound 10 μM
Provide the recorded fold increase in IFN-β release for the entries that follow.
Note: unit fold is implicit; provide only the numeric part.

I am curious: what fold increase in IFN-β release value has been reported for Cl.O=C(O)Cc1cccc(OCCCN(Cc2cccc(C(F)(F)F)c2Cl)CC(c2ccccc2)c2ccccc2)c1 [GW3965 HCl] ?
0.74

I am curious: what fold increase in IFN-β release value has been reported for COc1cc(CCc2cc(NC(=O)c3ccc(N4CC(C)NC(C)C4)cc3)n[nH]2)cc(OC)c1 (stereo not drawn) [AZD4547] ?
0.35

I am curious: what fold increase in IFN-β release value has been reported for C=CC(=O)Nc1cccc(Nc2nc(Nc3ccc(Oc4ccnc(C(=O)NC)c4)cc3)ncc2F)c1 [CNX-774] ?
0.73

I am curious: what fold increase in IFN-β release value has been reported for CC(=O)Nc1cccc2c1c(Sc1ccc(Cl)cc1)c(C)n2CC(=O)O [AZD1981] ?
3.11

I am curious: what fold increase in IFN-β release value has been reported for O=C1[C@H](Cc2ccc(O)cc2)N2C(=O)CCN(C(=O)NCc3ccccc3)[C@H]2CN1Cc1cccc2ccccc12 [ICG-001] ?
0.10

I am curious: what fold increase in IFN-β release value has been reported for CC1(COc2ccc3c(c2)ncn3-c2ccc3cccc(N4CCC(N)CC4)c3n2)COC1 [Crenolanib (CP-868596), Crenolanib] ?
0.32

* * *

tested on: STING activation (IFNβ release) in iBMDMs; assay: IFNβ release ELISA after STING ligand (or LPS) stimulation, iBMDMs; format: cell-based, mouse; settings: iBMDMs; 3′3′-cGAMP 10 μg/ml, 16 hours; compound 10 μM
measurement-label: fold increase in IFN-β release (fold)
Note: unit fold is implicit; provide only the numeric part.

What value of fold increase in IFN-β release on STING activation (IFNβ release) in iBMDMs does Cc1noc(-c2ccc(CSCCC(=O)O)cc2)c1NC(=O)OC(C)c1ccccc1Cl (centres unmarked) [Ki16425] have?
1.41

What value of fold increase in IFN-β release on STING activation (IFNβ release) in iBMDMs does COc1cc2c(cc1O)CC[C@@H]1[C@@H]2CC[C@]2(C)[C@@H](O)CC[C@@H]12 [2-Methoxyestradiol (2-MeOE2), 2-Methoxyestradiol] have?
2.62

What value of fold increase in IFN-β release on STING activation (IFNβ release) in iBMDMs does CC(C)(C)c1cc(C(C)(C)C)c(NC(=O)c2c[nH]c3ccccc3c2=O)cc1O [Ivacaftor (VX-770), Ivacaftor] have?
1.27

What value of fold increase in IFN-β release on STING activation (IFNβ release) in iBMDMs does CC(=O)c1cc([N+](=O)[O-])c(Sc2ccc(F)cc2F)s1 [P22077] have?
0.35

What value of fold increase in IFN-β release on STING activation (IFNβ release) in iBMDMs does O=C(NNc1ccccc1)c1ccncc1 [PluriSln #1 (NSC 14613)] have?
0.62

What value of fold increase in IFN-β release on STING activation (IFNβ release) in iBMDMs does CC1=C(C(=O)Nc2cc3cn[nH]c3cc2F)C(c2ccc(C(F)(F)F)cc2)CC(=O)N1 (centres unmarked) [GSK429286A] have?
2.79

What value of fold increase in IFN-β release on STING activation (IFNβ release) in iBMDMs does Cn1c(=O)cc(N2CCC[C@@H](N)C2)n(Cc2cc(F)ccc2C#N)c1=O [Trelagliptin] have?
1.80

What value of fold increase in IFN-β release on STING activation (IFNβ release) in iBMDMs does COc1cc(-c2ncn(/C=C\C(=O)OC(C)C)n2)cc(C(F)(F)F)c1 [KPT-185] have?
0.59

* * *

test system: STING activation (IFNβ release) in iBMDMs; test: IFNβ release ELISA after STING ligand (or LPS) stimulation, iBMDMs; type: cell-based, mouse; details: iBMDMs; 3′3′-cGAMP 10 μg/ml, 16 hours; compound 10 μM
Where a name gives a salt, the structure may show the parent alone.
measurement-label: fold increase in IFN-β release (fold)
Note: unit fold is implicit; provide only the numeric part.

What value of fold increase in IFN-β release on STING activation (IFNβ release) in iBMDMs does `COc1cc(Br)c(Nc2nc(-c3c(C)nc4ncccn34)cs2)c(Br)c1` have?
2.11

What value of fold increase in IFN-β release on STING activation (IFNβ release) in iBMDMs does `CCN(CC)CC(=O)Nc1c(C)cccc1C` have?
9.58

What value of fold increase in IFN-β release on STING activation (IFNβ release) in iBMDMs does `C[C@H]1COC2=C1C(=O)C(=O)c1c2ccc2c1CCCC2(C)C` have?
0.17

What value of fold increase in IFN-β release on STING activation (IFNβ release) in iBMDMs does `C[C@H](NC(=O)Cc1cc(F)cc(F)c1)C(=O)N[C@@H]1C(=O)N(C)c2ccccc2-c2ccccc21` have?
1.74

What value of fold increase in IFN-β release on STING activation (IFNβ release) in iBMDMs does `O=C(Nc1ccncc1)c1cc([N+](=O)[O-])ccc1Cl` have?
2.09

What value of fold increase in IFN-β release on STING activation (IFNβ release) in iBMDMs does COc1ccccc1Oc1c(NS(=O)(=O)c2ccc(C(C)(C)C)cc2)nc(-c2ncccn2)nc1OCCO [Bosentan Hydrate] have?
1.20

What value of fold increase in IFN-β release on STING activation (IFNβ release) in iBMDMs does `O=C(O)CCc1ccc(NCc2cccc(Oc3ccccc3)c2)cc1` have?
0.80

What value of fold increase in IFN-β release on STING activation (IFNβ release) in iBMDMs does Cl.NC(=O)c1cnc(N[C@@H]2CCCC[C@@H]2N)nc1Nc1cccc(-n2nccn2)c1 [PRT062607 (P505-15, BIIB057) HCl] have?
0.07

What value of fold increase in IFN-β release on STING activation (IFNβ release) in iBMDMs does Cc1ccc(C(=O)N(CCCN)[C@@H](c2nc3cc(Cl)ccc3c(=O)n2Cc2ccccc2)C(C)C)cc1 [Ispinesib (SB-715992), Ispinesib] have?
2.12

What value of fold increase in IFN-β release on STING activation (IFNβ release) in iBMDMs does `Cc1cnc(-c2cc(N3CCN(C(=O)CCS(C)(=O)=O)CC3)ncc2Cl)c(C)c1` have?
0.16

What value of fold increase in IFN-β release on STING activation (IFNβ release) in iBMDMs does `CCc1c2c(nc3ccc(OC(=O)N4CCC(N5CCCCC5)CC4)cc13)-c1cc3c(c(=O)n1C2)COC(=O)[C@]3(O)CC` have?
1.13

What value of fold increase in IFN-β release on STING activation (IFNβ release) in iBMDMs does `CC[C@@H]1C(=O)N(C)c2cnc(Nc3ccc(C(=O)NC4CCN(C)CC4)cc3OC)nc2N1C1CCCC1` have?
0.45

What value of fold increase in IFN-β release on STING activation (IFNβ release) in iBMDMs does `COc1c(O)cc2c(c1O)[C@@H]1O[C@H](CO)[C@@H](O)[C@H](O)[C@H]1OC2=O` have?
0.57

What value of fold increase in IFN-β release on STING activation (IFNβ release) in iBMDMs does `C=CC(=O)N1CCC[C@@H](n2nc(-c3ccc(Oc4ccccc4)cc3)c3c(N)ncnc32)C1` have?
0.53

What value of fold increase in IFN-β release on STING activation (IFNβ release) in iBMDMs does `COc1ccnc2[nH]cc(C(=O)C(=O)N3CCN(C(=O)c4ccccc4)C[C@H]3C)c12` have?
1.70

What value of fold increase in IFN-β release on STING activation (IFNβ release) in iBMDMs does `COc1cc(N2CCC(N3CCN(C)CC3)CC2)ccc1Nc1ncc(Cl)c(Nc2ccccc2P(C)(C)=O)n1` have?
0.19

What value of fold increase in IFN-β release on STING activation (IFNβ release) in iBMDMs does `Cc1c(C(=O)Nc2ccc(N3C[C@@H](C)O[C@@H](C)C3)nc2)cccc1-c1ccc(OC(F)(F)F)cc1` have?
1.31

What value of fold increase in IFN-β release on STING activation (IFNβ release) in iBMDMs does C[C@H]1COC2(CCN(c3nc(=O)c4cc(C(F)(F)F)cc([N+](=O)[O-])c4s3)CC2)O1 (racemic) [BTZ043 Racemate] have?
0.69

What value of fold increase in IFN-β release on STING activation (IFNβ release) in iBMDMs does CN1CCC[C@@H]1CCO[C@](C)(c1ccccc1)c1ccc(Cl)cc1 [Clemastine Fumarate] have?
1.32

What value of fold increase in IFN-β release on STING activation (IFNβ release) in iBMDMs does `COc1cc2c(cc1OC)CN(CCc1ccc(NC(=O)c3cc(OC)c(OC)cc3NC(=O)c3cnc4ccccc4c3)cc1)CC2` have?
0.77

What value of fold increase in IFN-β release on STING activation (IFNβ release) in iBMDMs does `Cc1cc(Nc2cc(CN3CCOCC3)c3nc(C)c(Cc4ccc(Cl)cc4F)n3n2)n[nH]1` have?
2.09

What value of fold increase in IFN-β release on STING activation (IFNβ release) in iBMDMs does Cc1cc2c(cc1CC(=O)c1sccc1S(=O)(=O)Nc1onc(C)c1Cl)OCO2 [Sitaxentan sodium] have?
1.16

What value of fold increase in IFN-β release on STING activation (IFNβ release) in iBMDMs does `Oc1ccc(Nc2nc(-c3ccc(Cl)cc3)cs2)cc1` have?
0.49

What value of fold increase in IFN-β release on STING activation (IFNβ release) in iBMDMs does `CCc1c(C(=O)NCCc2ccc(N3CCCCC3)cc2)[nH]c2ccc(Cl)cc12` have?
1.74

What value of fold increase in IFN-β release on STING activation (IFNβ release) in iBMDMs does `O=C(NOCC1CC1)c1ccc(F)c(F)c1Nc1ccc(I)cc1Cl` have?
0.94

What value of fold increase in IFN-β release on STING activation (IFNβ release) in iBMDMs does CCOC(=O)c1cncn1[C@H](C)c1ccccc1 [Etomidate] have?
0.86

What value of fold increase in IFN-β release on STING activation (IFNβ release) in iBMDMs does `O=C(Nc1ccccc1Br)N[C@@H]1CCN(c2ccc(C(F)(F)F)cn2)C1` have?
0.32

What value of fold increase in IFN-β release on STING activation (IFNβ release) in iBMDMs does `O=C1C(=O)N(Cc2ccc(Cl)c(Cl)c2)c2ccccc21` have?
0.17

What value of fold increase in IFN-β release on STING activation (IFNβ release) in iBMDMs does `CN(C)C(=O)Nc1cccc(-c2ccc(N(C)C)cc2)c1` have?
0.91

What value of fold increase in IFN-β release on STING activation (IFNβ release) in iBMDMs does COc1ccc2nc([S@@+]([O-])Cc3ncc(C)c(OC)c3C)[nH]c2c1 [Esomeprazole Sodium] have?
0.95

What value of fold increase in IFN-β release on STING activation (IFNβ release) in iBMDMs does `NC(=O)c1ccc(-c2nc(-c3ccccn3)c(-c3ccc4c(c3)OCO4)[nH]2)cc1` have?
0.78

What value of fold increase in IFN-β release on STING activation (IFNβ release) in iBMDMs does O=C(C[S+]([O-])Cc1ccco1)NC/C=C\COc1cc(CN2CCCCC2)ccn1 (centres unmarked) have?
2.85
